This collection of values is drawn from patent US20090149484A1.

Target: His-tagged Mutant B-Raf (V600E) enzyme (MT B-Raf) (Homo sapiens, UniProt P15056, V600E)
Construct: purified full length His-tagged Mutant B-Raf (V600E) enzyme
Sequence (P15056 whole entry V600E): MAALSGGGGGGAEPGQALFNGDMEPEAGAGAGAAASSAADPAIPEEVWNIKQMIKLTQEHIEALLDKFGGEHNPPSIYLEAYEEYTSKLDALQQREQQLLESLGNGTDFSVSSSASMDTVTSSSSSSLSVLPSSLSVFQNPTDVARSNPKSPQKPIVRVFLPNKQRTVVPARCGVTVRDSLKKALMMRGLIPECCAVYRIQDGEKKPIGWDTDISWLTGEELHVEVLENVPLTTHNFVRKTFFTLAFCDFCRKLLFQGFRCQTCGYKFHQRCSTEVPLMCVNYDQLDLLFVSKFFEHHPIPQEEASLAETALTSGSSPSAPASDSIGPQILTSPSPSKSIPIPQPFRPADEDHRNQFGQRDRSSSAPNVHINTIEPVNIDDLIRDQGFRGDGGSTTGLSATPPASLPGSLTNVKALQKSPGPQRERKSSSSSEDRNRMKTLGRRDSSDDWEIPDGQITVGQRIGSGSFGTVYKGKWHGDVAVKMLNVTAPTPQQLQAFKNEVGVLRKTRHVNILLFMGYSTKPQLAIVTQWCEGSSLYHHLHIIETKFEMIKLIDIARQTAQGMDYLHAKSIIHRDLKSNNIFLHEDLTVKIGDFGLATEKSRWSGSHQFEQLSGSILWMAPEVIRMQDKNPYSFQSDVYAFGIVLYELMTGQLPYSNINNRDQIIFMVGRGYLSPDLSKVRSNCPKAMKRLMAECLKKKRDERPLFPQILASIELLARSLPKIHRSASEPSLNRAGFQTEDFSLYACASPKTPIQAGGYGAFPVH
Test: B-Raf in-vitro AlphaScreen assay
Conditions: phosphorylation of biotinylated HIS-MEK-AVI, 0.12 nM MT B-Raf, 24 μM ATP in mix
Consider the following compounds and their measured IC50 readings.
Number only, in nM; omit the unit.

Take a look at these entries with their results.
Record Cn1cnc2ccc(Oc3ccc(NC(=O)Nc4ccc(Cl)c(C(F)(F)F)c4)cc3)cc2c1=O [Example 1] / His-tagged Mutant B-Raf (V600E) enzyme (MT B-Raf) (Homo sapiens, UniProt P15056, V600E), IC50 recorded as 287

Record Cn1cnc2ccc(Oc3ccc(NC(=O)Nc4cccc(C(F)(F)F)c4F)cc3)cc2c1=O [Example 7] / His-tagged Mutant B-Raf (V600E) enzyme (MT B-Raf) (Homo sapiens, UniProt P15056, V600E), IC50 recorded as 340

***
Record Cc1cc(NC(=O)Nc2ccc(Cl)c(C(F)(F)F)c2)ccc1Oc1ccc2ncn(C)c(=O)c2c1 [Example 3] / His-tagged Mutant B-Raf (V600E) enzyme (MT B-Raf) (Homo sapiens, UniProt P15056, V600E), IC50 recorded as 205
